Entries annotated with measured MIC
Test system: Klebsiella aerogenes 1522E
method description: In Vitro Anti-Bacterial Activity Test (MIC, agar dilution)
Type: cell-based
condition description: Klebsiella aerogenes, 1522E, 18 h, Klebsiella aerogenes 1522E; Muller-Hinton agar, 37° C., 18 hours; read-out: MIC
Counter-ions that a name gives are not always drawn.
Kindly provide the numeric value in µg/mL only, without the unit symbol.

Previously resolved entries follow.
CCOC(=O)CC(=O)c1cn(C2CC2)c2c(F)c(N3CCC(N)C3)c(F)cc2c1=O (stereo not shown) [Example 21, hydrochloride] = 0.025
CCOC(=O)C(C(=O)OCC)C(=O)c1cn(C2CC2)c2c(F)c(N3CCC(N)C3)c(F)cc2c1=O (stereo not shown) [Example 20, hydrochloride] = 0.025
NC1CCN(c2c(F)cc3c(=O)c(C(=O)CC(=O)C(F)(F)F)cn(C4CC4)c3c2Cl)C1 (stereo not shown) [Example 38, hydrochloride] = 0.098

If you can, please state the reported MIC value of CCOC(=O)C(C(=O)OCC)C(=O)c1cn(C2CC2)c2c(OC)c(N3CCC(NC)C3)c(F)cc2c1=O (stereo not shown) [Example 60, hydrochloride] .
0.195

Param item: CNC1CCN(c2c(F)cc3c(=O)c(C(=O)C[N+](=O)[O-])cn(C4CC4)c3c2OC)C1 (stereo not shown) [Example 66, hydrochloride]
0.013

Can you handle CCOC(=O)C(C#N)C(=O)c1cn(C2CC2)c2c(Cl)c(N3CCC(N)C3)c(F)cc2c1=O (stereo not shown) [Example 39, hydrochloride] next?
0.781

What do we get for CCOC(=O)C(C(=O)OCC)C(=O)c1cn(C2CC2)c2c(Cl)c(N3CCC(N)C3)c(F)cc2c1=O (stereo not shown) [Example 22, hydrochloride] ?
0.025

Then Cc1c(F)c(N2CCNC(C)C2)cc2c1c(=O)c(C(=O)C[N+](=O)[O-])cn2C1CC1 (stereo not shown) [Example 51, hydrochloride] ?
0.195

Same again, this time with CCOC(=O)C(C(=O)OCC)C(=O)c1cn(C2CC2)c2c(Cl)c(N3CCC(NC)C3)c(F)cc2c1=O (stereo not shown) [Example 57, hydrochloride]
0.049

Would you mind doing CN[C@H]1CCN(c2c(F)cc3c(=O)c(C(=O)C[N+](=O)[O-])cn(C4CC4)c3c2Cl)C1 [Example 62, hydrochloride] as well?
0.007

Item: CCOC(=O)C(C(=O)OCC)C(=O)c1cn(C2CC2)c2c(OC)c(N3CC[C@@H](NC)C3)c(F)cc2c1=O [Example 58, hydrochloride]
0.195

Do the same for CCn1cc(C(=O)C[N+](=O)[O-])c(=O)c2cc(F)c(N3CCC(N)C3)c(F)c21 (stereo not shown) [Example 30, hydrochloride] please
0.098

Then what about the molecule CC(=O)C(C(C)=O)C(=O)c1cn(C2CC2)c2c(Cl)c(N3CCC(N)C3)c(F)cc2c1=O (stereo not shown) [Example 48, hydrochloride] ?
0.195

----------
Tested on: Staphylococcus aureus 503
method description: In Vitro Anti-Bacterial Activity Test (MIC, agar dilution)
Format: cell-based
condition description: Staphylococcus aureus 503; Muller-Hinton agar, 37° C., 18 hours; read-out: MIC
Where a name gives a salt, the structure may show the parent alone.
Here the recorded MIC is given for each entry.
Field: numeric (µg/mL). Do not append units.

# count of solved cases: 6
CCOC(=O)C(C(=O)OCC)C(=O)c1cn(C2CC2)c2c(OC)c(N3CC[C@H](NC)C3)c(F)cc2c1=O [Example 59, hydrochloride] = 0.098
CCOC(=O)C(C(=O)OCC)C(=O)c1cn(C2CC2)c2c(Cl)c(N3CCC(N)C3)c(F)cc2c1=O (stereo not shown) [Example 22, hydrochloride] = 0.049
Cc1c(N2CCC(N)C2)c(F)cc2c(=O)c(C(=O)C[N+](=O)[O-])cn(C3CC3)c12 (stereo not shown) [Example 50, hydrochloride] = 0.098
N#CC(C#N)C(=O)c1cn(C2CC2)c2c(Cl)c(N3CCC(N)C3)c(F)cc2c1=O (stereo not shown) [Example 45, hydrochloride] = 1.56
CCOC(=O)C(C(=O)OCC)C(=O)c1cn(C2CC2)c2c(Cl)c(N3CC[C@@H](N)C3)c(F)cc2c1=O [Example 23, hydrochloride] = 0.049
CCOC(=O)CC(=O)c1cn(C2CC2)c2c(Cl)c(N3CCC(N)C3)c(F)cc2c1=O (stereo not shown) [Example 25, hydrochloride] = 0.049

Shift focus to the following entry.
Tell me the measured MIC of CS(=O)(=O)CC(=O)c1cn(C2CC2)c2c(Cl)c(N3CCC(N)C3)c(F)cc2c1=O (stereo not shown) [Example 33, hydrochloride] , please.
0.781

----------
System: Escherichia coli DC2
method description: In Vitro Anti-Bacterial Activity Test (MIC, agar dilution)
Type: cell-based
condition description: Escherichia coli, DC2, 18 h
Structures can show the parent of a compound that is named as a salt.
Each item that follows carries a reported log10 MIC.
Please interpret these as log10 of MIC where MIC is in µg/mL.

O=C(C[N+](=O)[O-])c1cn(C2CC2)c2cc(N3CCNCC3)c(F)cc2c1=O [Example 4, hydrochloride] = -0.41

Query (compound): CCOC(=O)CC(=O)c1cn(C2CC2)c2cc(N3CCNCC3)c(F)cc2c1=O [Example 19, hydrochloride] ; field requested: log10 MIC
-0.41

Moving on to O=C(C[N+](=O)[O-])c1cn(C2CC2)c2c(F)c(N3CCNCC3)c(F)cc2c1=O [Example 6, hydrochloride]
-1.01

And for CC1CN(c2c(F)cc3c(=O)c(C(=O)C[N+](=O)[O-])cn(C4CC4)c3c2F)CCN1 (centres unmarked) [Example 7, hydrochloride] ?
-0.41

What about CC(=O)CC(=O)c1cn(C2CC2)c2c(Cl)c(N3CCC(N)C3)c(F)cc2c1=O (centres unmarked) [Example 37, hydrochloride] ?
-0.41

CNCC1=CCN(c2c(F)cc3c(=O)c(C(=O)C[N+](=O)[O-])cn(C4CC4)c3c2F)C1 [Example 15, hydrochloride] ?
-1.89

----------
System: Salmonella typhimurium
method description: In Vitro Anti-Bacterial Activity Test (MIC, agar dilution)
Assay type: cell-based
condition description: Salmonella enterica; Salmonella typhimurium; Muller-Hinton agar, 37° C., 18 hours; read-out: MIC
Structures can show the parent of a compound that is named as a salt.
property measured: log10 of MIC (log10 of the value in µg/mL)
Response schema: value (number) is log10 of MIC in units of µg/mL.

Reference set, count: 3
CC1CN(c2cc3c(cc2F)c(=O)c(C(=O)C[N+](=O)[O-])cn3-c2ccc(F)cc2F)CCN1 (stereo not shown) [Example 10, hydrochloride] = -1.31
CN[C@@H]1CCN(c2c(F)cc3c(=O)c(C(=O)C[N+](=O)[O-])cn(C4CC4)c3c2OC)C1 [Example 64, hydrochloride] = -1.89
COc1c(N2CCC(N)C2)c(F)cc2c(=O)c(C(=O)C[N+](=O)[O-])cn(C3CC3)c12 (stereo not shown) [Example 49, hydrochloride] = -1.31

Look at this compound and give its reported log10 of MIC. CCOC(=O)C(C(=O)OCC)C(=O)c1cn(C2CC2)c2c(OC)c(N3CCC(NC)C3)c(F)cc2c1=O (stereo not shown) [Example 60, hydrochloride]
-1.01

CNCC1=CCN(c2c(F)cc3c(=O)c(C(=O)CS(C)(=O)=O)cn(C4CC4)c3c2Cl)C1 [Example 46, hydrochloride] ?
-0.71

Also CCOC(=O)C(C(=O)OCC)C(=O)c1cn(C2CC2)c2c(OC)c(N3CC[C@@H](NC)C3)c(F)cc2c1=O [Example 58, hydrochloride] ?
-0.71

Moving on to the next compound: CN[C@H]1CCN(c2c(F)cc3c(=O)c(C(=O)C[N+](=O)[O-])cn(C4CC4)c3c2Cl)C1 [Example 62, hydrochloride]
-1.60

----------
Tested on: Klebsiella aerogenes 1522E
method description: In Vitro Anti-Bacterial Activity Test (MIC, agar dilution)
Assay type: cell-based
condition description: Klebsiella aerogenes, 1522E, 18 h, Klebsiella aerogenes 1522E; Muller-Hinton agar, 37° C., 18 hours; read-out: MIC
Counter-ions that a name gives are not always drawn.
The following molecules are listed with their measured MIC values.
Give your result in µg/mL as a bare value.

Worked set:
NC1CCN(c2cc3c(cc2F)c(=O)c(C(=O)C[N+](=O)[O-])cn3-c2ccc(F)cc2F)C1 (stereo not drawn) [Example 9, hydrochloride] = 0.004
CCOC(=O)C(C(=O)OCC)C(=O)c1cn(C2CC2)c2c(Cl)c(N3CC[C@@H](N)C3)c(F)cc2c1=O [Example 23, hydrochloride] = 0.025

// next item, MIC requested
Given the entry N[C@H]1CCN(c2c(F)cc3c(=O)c(C(=O)C[N+](=O)[O-])cn(C4CC4)c3c2Cl)C1 [Example 13, hydrochloride] , report its measured MIC.
0.013
